# System: HIV Env of isolate Ce1172_H1 (clade C) (HIV)
# Protocol: cell-based or functional assay
So I've got a bunch of binders here, and I need their IC50 (µg/ml) with constrains values.
Give bare numbers, in µg/mL.

Here's what some known entries look like.
{"Binder": "ePGDM13 (antibody, V domains shown) VH: QAQLVQSGPEVRKPGTSVKVSCKNPGNTLTTYDLHWVRQVPGQGLQWMGWISHEGDKKVIVERFKAKVTIDWDRSTNTAYLQLSGLTSEDTAVYYCAKGSKHRLRDYALYDEDGALNWAVDVDYLANLEFWGQGTAVTVSS VL: DIVLTQSPLSLSVTPGESASISCKSSHSLQHGDRNNYLAWYVQKPGRSPQLLLDLASERASGVPDRFSGSGSEKDFTLKISRVETEDVGTYYCMQGRESPWTFGQGTKVDIK", "Value Unit": "µg/mL", "IC50 (µg/ml) with constrains": 0.061}
{"Binder": "PGDM1400 (antibody, V domains shown) VH: QVHLTQSGPEVRKPGTSVKVSCKAPGNTLKTYDLHWVRSVPGQGLQWMGWISHEGDKKVIVERFKAKVTIDWDRSTNTAYLQLSGLTSGDTAVYYCAKGSKHRLRDYALYDDDGALNWAVDVDYLSNLEFWGQGTAVTVSS VL: DFVLTQSPHSLSVTPGESASISCKSSHSLIHGDRNNYLAWYVQKPGRSPQLLIYLASSRASGVPDRFSGSGSDKDFTLKISRVETEDVGTYYCMQGRESPWTFGQGTKVDIK", "Value Unit": "µg/mL", "IC50 (µg/ml) with constrains": 0.218}

Kindly consider the entry below.
### Prompt Given ePGDM5 (antibody, V domains shown) VH: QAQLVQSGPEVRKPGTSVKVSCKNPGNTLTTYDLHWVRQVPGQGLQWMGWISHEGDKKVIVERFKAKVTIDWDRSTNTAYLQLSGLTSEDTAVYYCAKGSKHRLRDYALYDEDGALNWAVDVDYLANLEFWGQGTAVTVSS VL: DFVLTQSPLSLSVTPGESASISCKSDHSLQHGDRNNYLAWYVQKPGRSPQLLIDLASERASGVPDRFSGSGSRKDFTLKIDRVEAEDVGTYYCMQGRESPWTFGQGTKVDIK , state its recorded IC50 (µg/ml) with constrains.
### Response 0.016
